Ok so here's the combined literature set: IC50 for JNK2 (Homo sapiens (Human)).

- compound: "O=C(Nc1cccc(C(=O)c2c[nH]c3ncc(-c4cccnc4)cc23)c1)Nc1ccc(F)c(F)c1"
  outcome measure: "IC50"
  val: "≤ 10000 nM"
- compound: "Cc1noc(-c2c(C)csc2NC(=O)Cc2cccc3ccccc23)n1"
  outcome measure: "IC50"
  val: "100 to 10000 nM"
- compound: "CN1CCC[C@@H]1C(=O)OC1CCN(C(=O)[C@H]2CC[C@H](Nc3nccc(-n4ccc5c(OCCCS(C)(=O)=O)cccc54)n3)CC2)CC1"
  outcome measure: "IC50"
  val: "55 nM"
- compound: "O[C@H]1CC[C@H](Nc2nccc(-c3cnc4c(OCc5ccccc5)cccn34)n2)CC1"
  outcome measure: "IC50"
  val: "49.4 nM"
- compound: "CCCCNC(=O)n1ccc2c(C(=O)c3c[nH]c4ncc(Br)cc34)cccc21"
  outcome measure: "IC50"
  val: "≤ 10000 nM"
- compound: "O=C(CN1C(=O)CCc2ccccc21)Nc1scc(Cl)c1-c1ncn[nH]1"
  outcome measure: "IC50"
  val: "< 100 nM"
- compound: "O=C(Cn1c(=O)ccc2cnc(C(F)(F)F)cc21)Nc1scc(Br)c1-c1ncn[nH]1"
  outcome measure: "IC50"
  val: "< 100 nM"
- compound: "O=C(Cn1c(=O)ccc2ccc(C(F)(F)F)cc21)Nc1scc(Br)c1-c1ncn[nH]1"
  outcome measure: "IC50"
  val: "< 100 nM"
- compound: "O=C(Cn1c(=O)ccn2nc(C(F)(F)F)cc12)Nc1scc(Br)c1-c1ncn[nH]1"
  outcome measure: "IC50"
  val: "< 100 nM"
- compound: "Cc1noc(-c2sccc2NC(=O)Cc2cccc3ccccc23)n1"
  outcome measure: "IC50"
  val: "> 50000 nM"

Please turn your attention to the following entry.
Log: JNK2 (Homo sapiens (Human)), compound "Cc1csc(NC(=O)Cc2ccc(OCCn3ccnc3)cc2)c1-c1ncn[nH]1" , IC50 = 100 to 10000 nM
